# Tested on: SF-268 CNS
# test description: NCI-60 one-dose screen, 48 h (100 = growth as untreated, 0 = no growth, -100 = all killed)
# experimental setup: 10 µM unless noted
This is part of a sample that, as a whole, favours compounds with a hit. Of some 83,000 tested, about 20% had one in any assay.

| compound | growth (%) |
| --- | --- |
| CCCCCCCCCCCC1=NC(C)(C)CN1C(C)(C)CO | 69.1 |
| CC(=O)N(C)c1ccc(Nc2cc(C)[nH]c3ccc4ncnc4c23)cc1 | 55 |
| COc1cc(C2=NOC(c3cc(OC)c(OC)c(OC)c3)C2)ccc1OCCCCOc1cc2c(cc1OC)C(=O)N1CCC[C@H]1C=N2 (stereo not given in full) | -29.5 |
| CCCC(CCC)NCC(O)c1cc(-c2ccc(C(F)(F)F)cc2)nc(C(F)(F)F)c1 (stereo not given) | -40.5 |
| COc1cccc(OCC(O)CN2CCN(c3ccccc3)CC2)c1 (stereo not given) | 106 |
| CC1CN(CCCOC(=O)Nc2ccc(Cl)cc2)CCN1C(C)(C)C (stereo not given) | 106 |
| CC1C2CCC(C2)C1COCCOCCO (stereo not given) | 112 |
| CC(C)N1CCN(c2ccncc2S(=O)(=O)N2CCN(C)CC2)CC1 | 107 |
| N=c1n(Cc2ccccc2)c(N)cc(=O)n1Cc1ccccc1 | 2.59 |
| CCOC(=O)c1ccc(NC(=O)NC2=NCCS2)cc1 | 40.4 |
| COc1cc2c(cc1OC)C(=O)OC2 | 100 |
| Nc1nc(N)c2c(n1)NC(c1sc(Cl)nc1Cl)CC(c1ccc3c(c1)OCO3)=N2 (stereo not given) | 38.8 |
| Cc1ccc2cc3c(NC(=O)c4cccnc4)nn(C)c3nc2c1 | 97.3 |
| C#CC[C@@H]1C[C@]2(C)[C@H]3CC=C4[C@H]5[C@@H](C)[C@H](C)CC[C@]5(C(=O)NCCCCN)CC[C@@]4(C)[C@]3(C)CC[C@H]2C(C)(C)[C@H]1OC(C)=O | 69.8 |
| CNCc1ccccc1CN(CC(=O)Nc1ccc2c(c1)CC1(C2)C(=O)Nc2ncccc21)C(=O)C(C)(C)C (stereo not given) | 101 |
| CCOC(C)(c1ccc(Cl)cc1)C1CCNCC1 (stereo not given) | 115 |
| Clc1ccc2c(c1)-n1cccc1C(c1ccc3ccccc3c1)=NC2 | 109 |
| COc1ccc2nc(NC(=O)/C(=C/c3cc(OC)c(OC)c(OC)c3)c3ccc(OC)c(OC)c3)sc2c1 | 99.9 |
| O=C(Oc1c(Cl)c(Cl)c(Cl)c(Cl)c1Cl)C1CCCN1C(=O)OCc1ccccc1 (stereo not given) | 42.2 |
| Cc1cc(O)c(C2=NN(c3ccc(S(N)(=O)=O)cc3)C(c3ccc(Cl)cc3)C2)c(C)c1Cl (stereo not given) | 61.7 |
| NC(N)=N/N=C/c1ccccc1 | 103 |
| CC(C)OC(=O)c1ccc([N+](=O)[O-])cc1 | 119 |
| COc1cccc(/C=N/N=C(N)N)c1 | 101 |
| C=C(C)C1CCC2(C(=O)O)CCC3(C)C(CCC4C5(C)CCC(O)C(C)(C)C5CCC43C)C12 (stereo not given) | 16.3 |
| CC1(C)C2CCC(O)(C(=O)O)C1C2 (stereo not given) | 112 |
| CC(=O)Nc1nonc1-c1nc2ccccc2n1Cc1ccc(C(C)(C)C)cc1 | 67.2 |
| CC(=O)OC1Oc2cc(C)c(C)cc2-c2oc(=O)c(-c3ccc(F)cc3)cc21 (stereo not given) | 55.5 |
| O=C1C2=C(C(=O)c3c(O)ccc(O)c31)N(c1ccc(N3CCOCC3)nc1)Cc1ccccc1O2 | -42.5 |
| CC(C)CC(NC(=O)C(CCCN=C(N)N)NC(=O)OCc1ccccc1)C(=O)NC(CNC(=O)/C=C/c1ccccc1)C(C)C (stereo not given) | 107 |
| Cc1c(-c2ccc(-c3ccccc3F)cc2)nc2ccc(F)cc2c1C(=O)O | 50.7 |
| OC(c1cc2c(Cl)cc(Cl)cc2c2cc(C(F)(F)F)ccc12)C1CCCCN1 (stereo not given) | -82.9 |
| CN1CCN(Cc2ccc(NC(=O)c3ccc(C#N)c(C#Cc4cnc(N)c5ncccc45)c3)cc2C(F)(F)F)CC1 | 94.1 |
| CC(C)NC(=O)OCC#CCOC(=O)NC(C)C | 110 |
| CCOC(=O)c1ccc(N(CCC(=O)O)C(C)=O)cc1 | 119 |
| COc1cc2nccc(Oc3ccc(NC(=O)C4(C(=O)Nc5ccc(F)cc5)CC4)cc3)c2cc1OC(=O)c1ccc(N)cc1 | 29.4 |
| O=C1OCC2=C1C(c1ccc(Cl)c(Cl)c1)c1cc3c(cc1N2CCO)CCC3 (stereo not given) | 44.3 |
| Cc1ccc(NC(=O)c2nc(S(C)=O)oc2-c2ccc(F)cc2)cc1Nc1nccc(-c2cccnc2)n1 (stereo not given) | 54.4 |
| Cc1ccc2oc(=O)cc(-c3nc4ccc([N+](=O)[O-])cc4[nH]3)c2c1 | 62.1 |
| Cc1[nH]nc2ccc3nc(-c4ccc5[nH]ncc5c4)c4c(c3c12)CCCC4 | 33.8 |
| CCC(C)C1NC(=O)c2nc(oc2-c2ccccc2)-c2csc(n2)-c2csc(n2)-c2nc(oc2C)-c2coc(n2)CNC(=O)C(C(C)CC)NC1=O (stereo not given) | -66.9 |
